Attribution: patent US12398101B2

System: Lolium perenne (LOLPE)
assay name: Glasshouse herbicide test, pre-emergence application
Assay type: in vivo
assay context: 250 g/h, evaluated after 13 days
Exercise: state measured percentage damage caused to the plant, five point scale, LOLPE for each of the compounds provided.

Exercise: # input compound: CC#Cc1cc(C)c(C2C(=O)CC3(CC2=O)CN(C(=O)NC(=O)C(C)(C)C)C3)c(OC)c1 [Compound 1.019] ; wanted: its percentage damage caused to the plant, five point scale, LOLPE
Key: 4 (4=60-79%)

Exercise: # input compound: CC#Cc1cc(C)c(C2C(=O)CC3(CC2=O)CN(C(=O)NC(=O)c2ccccn2)C3)c(OC)c1 [Compound 1.022] ; wanted: its percentage damage caused to the plant, five point scale, LOLPE
Key: 3 (3=40-59%)

Exercise: # input compound: CC#Cc1cc(C)c(C2C(=O)CC3(CC2=O)CN(C(=O)C(F)F)C3)c(C)c1 [Compound 1.009] ; wanted: its percentage damage caused to the plant, five point scale, LOLPE
Key: 5 (5=80-100%)

Exercise: # input compound: CC#Cc1cc(C)c(C2C(=O)CC3(CC2=O)CN(C(=O)CC#N)C3)c(OC)c1 [Compound 1.023] ; wanted: its percentage damage caused to the plant, five point scale, LOLPE
Key: 3 (3=40-59%)
